# Target Of Assay: Amine oxidase [flavin-containing] A (Homo sapiens, UniProt P21397)
# Sequence (P21397 whole entry): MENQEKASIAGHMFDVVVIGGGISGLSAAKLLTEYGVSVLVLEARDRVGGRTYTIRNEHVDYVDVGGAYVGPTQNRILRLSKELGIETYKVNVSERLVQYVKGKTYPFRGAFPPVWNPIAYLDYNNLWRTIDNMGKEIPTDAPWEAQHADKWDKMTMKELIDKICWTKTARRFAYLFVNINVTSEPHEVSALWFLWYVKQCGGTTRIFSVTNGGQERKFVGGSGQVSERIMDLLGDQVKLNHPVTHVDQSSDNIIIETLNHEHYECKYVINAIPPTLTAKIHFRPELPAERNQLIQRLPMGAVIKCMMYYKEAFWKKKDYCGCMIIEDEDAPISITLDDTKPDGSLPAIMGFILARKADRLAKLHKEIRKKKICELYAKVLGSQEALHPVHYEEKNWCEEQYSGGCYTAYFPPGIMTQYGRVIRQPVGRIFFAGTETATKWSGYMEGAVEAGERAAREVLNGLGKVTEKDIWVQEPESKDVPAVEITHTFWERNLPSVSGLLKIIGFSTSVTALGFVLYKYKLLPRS
# Assay Remarks: DRUGMATRIX: Monoamine Oxidase MAO-A enzyme inhibition (substrate: Kynuramine)
# Design: species or system BTI-TN-5B1-4
# Measurement Context: bti-tn-5b1-4; Not Active = under 50% inhibition at 10 µM
Readout Name: IC50

compound="Cc1cccc(C)c1NC(=O)C1CCCCN1C (configuration not stated) [MEPIVACAINE]" target_of_assay="Amine oxidase [flavin-containing] A (Homo sapiens, UniProt P21397)" readout_name=IC50 result="Not Active"
compound="CN1CCCC(CN2c3ccccc3Sc3ccccc32)C1 (configuration not stated) [MEPAZINE]" target_of_assay="Amine oxidase [flavin-containing] A (Homo sapiens, UniProt P21397)" readout_name=IC50 result="Not Active"
compound="CC(=O)OCC(=O)[C@@]1(O)CC[C@H]2[C@@H]3CCC4=CC(=O)CC[C@]4(C)[C@@]3(F)[C@@H](O)C[C@@]21C [FLUDROCORTISONE ACETATE]" target_of_assay="Amine oxidase [flavin-containing] A (Homo sapiens, UniProt P21397)" readout_name=IC50 result="Not Active"
compound="COc1cc(OC)c(C(=O)CCCN2CCCC2)c(OC)c1 [BUFLOMEDIL]" target_of_assay="Amine oxidase [flavin-containing] A (Homo sapiens, UniProt P21397)" readout_name=IC50 result="Not Active"
compound="CC(C)c1c(C(=O)Nc2ccccc2)c(-c2ccccc2)c(-c2ccc(F)cc2)n1CC[C@@H](O)C[C@@H](O)CC(=O)O [ATORVASTATIN]" target_of_assay="Amine oxidase [flavin-containing] A (Homo sapiens, UniProt P21397)" readout_name=IC50 result="Not Active"
compound="C[C@@H]1O[C@@H](O[C@H]2C[C@@H](O)[C@]3(CO)[C@H]4[C@H](O)C[C@]5(C)[C@@H](C6=CC(=O)OC6)CC[C@]5(O)[C@@H]4CC[C@]3(O)C2)[C@H](O)[C@H](O)[C@H]1O [OUABAIN]" target_of_assay="Amine oxidase [flavin-containing] A (Homo sapiens, UniProt P21397)" readout_name=IC50 result="Not Active"
compound="C[C@@](Cc1ccc(O)c(O)c1)(NN)C(=O)O.O [CARBIDOPA]" target_of_assay="Amine oxidase [flavin-containing] A (Homo sapiens, UniProt P21397)" readout_name=IC50 result="Not Active"

----------
In this section, each of the molecules is paired with its reported IC50.
# Target Of Assay: Muscarinic acetylcholine receptor M5 (Homo sapiens, UniProt P08912); further: in other assays of this panel Not Active means under 50% inhibition at 10 µM
# Sequence (P08912 whole entry): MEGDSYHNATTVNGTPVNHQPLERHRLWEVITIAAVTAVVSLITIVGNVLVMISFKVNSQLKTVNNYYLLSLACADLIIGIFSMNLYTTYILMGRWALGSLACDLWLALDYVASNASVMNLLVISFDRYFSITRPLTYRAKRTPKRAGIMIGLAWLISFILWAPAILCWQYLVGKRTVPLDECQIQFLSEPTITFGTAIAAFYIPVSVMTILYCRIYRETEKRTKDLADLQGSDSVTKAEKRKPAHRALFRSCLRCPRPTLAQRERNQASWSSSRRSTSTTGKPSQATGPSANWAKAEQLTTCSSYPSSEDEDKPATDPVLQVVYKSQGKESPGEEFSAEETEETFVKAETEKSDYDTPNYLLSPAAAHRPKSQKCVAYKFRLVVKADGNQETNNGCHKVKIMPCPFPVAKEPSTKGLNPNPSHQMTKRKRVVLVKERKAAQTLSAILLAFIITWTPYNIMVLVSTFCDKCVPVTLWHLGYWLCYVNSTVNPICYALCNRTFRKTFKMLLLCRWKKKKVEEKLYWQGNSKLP
# Type: cell membranes, CHO-K1, Membrane
# Measurement Context: read-out: IC50
Readout Name: IC50 (µM)

molecule="CN(C)CCC=C1c2ccccc2CCc2ccccc21 [AMITRIPTYLINE]" numeric_value=0.00802
molecule="CCN(CC)CCCC(C)Nc1c2ccc(Cl)cc2nc2ccc(OC)cc12 (stereo not drawn) [QUINACRINE]" numeric_value=3.74
molecule=Cc1c(O)cccc1C(=O)N[C@@H](CSc1ccccc1)[C@H](O)CN1C[C@H]2CCCC[C@H]2C[C@H]1C(=O)NC(C)(C)C numeric_value=86.1
